Experiment: Quantitative High-Throughput drug screen in 47 multiple myeloma cell lines against the NCATS MIPE library collection: Karpas25_ECACC cell viability assay (AID 1918968; also: nearly all actives have a fitted effect of over 35% in size)
Details: Karpas25 myeloma viability, CellTiter-Glo ATP, 48 h; series mostly up to 45.8 µM
Records with an inconclusive call do not appear. Calls of active or inactive are those of the source. Calls follow the shape of the dose curve; as a rule, active = well fitted cell-killing curve with a large enough effect; inconclusive = small, poorly fitted or top-dose-only effect, or effect the other way; inactive = no such curve, though single readings can be large or run the other way.
Write down the outcome that applies. Available outcomes: T = active, F = inactive

Returns: the outcome recorded for COc1ccc(Cn2ccc3ccc(C(=O)NO)cc32)cc1 in this assay.
T

Returns: the outcome recorded for COc1cc2c(cc1Cc1cccc(Cl)c1F)c(=O)c(C(=O)O)cn2[C@H](CO)C(C)C in this assay.
T

Returns: the outcome recorded for CC[C@H](C=C[C@@H](C)[C@H]1CC[C@H]2[C@@H]3CC=C4C[C@@H](O)CC[C@]4(C)[C@@H]3CC[C@]12C)C(C)C in this assay.
F

Returns: the outcome recorded for CC(C)(C)c1nc(-c2cccc(NS(=O)(=O)c3c(F)cccc3F)c2F)c(-c2ccnc(N)n2)s1 in this assay.
T

Returns: the outcome recorded for CC(C)n1c(C=C[C@H](O)C[C@H](O)CC(=O)O)c(-c2ccc(F)cc2)c2ccccc21 in this assay.
T

Returns: the outcome recorded for COc1cccc(OC)c1-c1cc(C(=O)NC2(C(=O)O)C3CC4CC(C3)CC2C4)nn1-c1ccnc2cc(Cl)ccc12 (stereo unspecified) in this assay.
F
